Molecular target: purified human COP1 WD40 β propeller (386-731) (human, UniProt Q8NHY2 386-731)
Sequence (Q8NHY2 386-731): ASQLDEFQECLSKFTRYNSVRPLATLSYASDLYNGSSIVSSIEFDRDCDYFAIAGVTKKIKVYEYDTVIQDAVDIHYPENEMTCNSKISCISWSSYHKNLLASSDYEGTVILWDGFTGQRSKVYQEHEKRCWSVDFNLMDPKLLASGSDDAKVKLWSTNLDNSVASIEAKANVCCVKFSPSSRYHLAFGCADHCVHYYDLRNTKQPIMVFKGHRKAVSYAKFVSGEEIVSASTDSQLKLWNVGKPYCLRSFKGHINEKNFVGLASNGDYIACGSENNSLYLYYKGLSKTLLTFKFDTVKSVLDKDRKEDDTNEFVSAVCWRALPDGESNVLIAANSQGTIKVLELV
Test: fluorescence polarisation
Ends that are not written are not given here. * marks the point of attachment. FITC = O=C1OC2(c3ccc(O)cc3Oc3cc(O)ccc32)c2ccc(NC(=S)*)cc21
observed_property: pKd
FYI, pKd means -log10 of a concentration in mol per litre.

Report pKd for {FITC}-SSLSGPLQVVPD [STK40 peptide FITC-SSLSGPLQVVPD] please.
5.51
